Can you tell me log P (acid) for the items I'm about to list?
- experiment notes: log P determination by LC-MS in the acidic range
- Type: physicochemical
- assay setup: LC-MS in the acidic range
Give the figure by itself; no unit, no explanation.

Request: Fill in: log P (acid) of Cc1cc(NC(=O)c2cncc(Cl)c2)nn1Cc1ncccn1 is ___
Response: 1.4

Request: Fill in: log P (acid) of Cc1cc(NC(=O)c2cccnc2)nn1C(=O)NCc1ccccn1 is ___
Response: 0.88

Request: Fill in: log P (acid) of Cc1c(Cl)c(NC(=O)c2cccnc2)nn1Cc1ncccn1 is ___
Response: 0.94

Request: Fill in: log P (acid) of CCNC(=O)n1nc(NC(=O)c2cccnc2)cc1C is ___
Response: 1.24

Request: Fill in: log P (acid) of Cc1cc(NC(=O)c2cccnc2)nn1CC1CCCO1 (stereo not drawn) is ___
Response: 1.06

Request: Fill in: log P (acid) of Cc1ccc(C(=O)Nc2cc(C)n(Cc3cccc(F)c3)n2)cn1 is ___
Response: 1.79

Request: Fill in: log P (acid) of Cc1cc(N(CC#N)C(=O)c2cccnc2)nn1Cc1ncccn1 is ___
Response: 0.84

Request: Fill in: log P (acid) of O=C(Nc1ccn(-c2ncccc2Cl)n1)c1cccnc1 is ___
Response: 1.25

Request: Fill in: log P (acid) of Cc1cc(NC(=O)c2cccnc2)nn1Cn1nc(C2CC2)n(C2CC2)c1=O is ___
Response: 1.45

###

Can you tell me log P (acid) for the items I'm about to list?
- experiment notes: log P determination by LC-MS in the acidic range
- Type: physicochemical
- assay setup: LC-MS in the acidic range

Request: Fill in: log P (acid) of COc1ccc(C(=O)Nc2cc(C)n(Cc3ccccc3F)n2)cn1 is ___
Response: 2.52

Request: Fill in: log P (acid) of Cc1cc(NC(=O)c2cncnc2)nn1Cc1ccccc1 is ___
Response: 1.76

Request: Fill in: log P (acid) of Cc1cc(NC(=O)c2ccnnc2)nn1Cn1nc(C)n(C2CC2)c1=O is ___
Response: 0.92

Request: Fill in: log P (acid) of COc1nn(Cn2nc(NC(=O)c3cccnc3)cc2C)c(=O)n1C1CC1 is ___
Response: 1.27

Request: Fill in: log P (acid) of Cc1cc(NC(=O)c2cccnc2)nn1C(=O)NC(C)c1ncccn1 (centres unmarked) is ___
Response: 1.29

Request: Fill in: log P (acid) of Cc1cc(NC(=O)c2ccc(Cl)nc2)nn1Cc1cccc(F)c1 is ___
Response: 2.6

Request: Fill in: log P (acid) of O=C(Nc1ccn(CC(F)F)n1)c1cccnc1 is ___
Response: 0.74

Request: Fill in: log P (acid) of CCCC(=O)n1nc(NC(=O)c2cccnc2)cc1C is ___
Response: 1.94

Request: Fill in: log P (acid) of Cc1cn(CC#N)nc1NC(=O)c1cccnc1 is ___
Response: 0.37

Request: Fill in: log P (acid) of Cc1cc(NC(=O)c2cccnc2)nn1C(=O)c1ncccn1 is ___
Response: 1.11

Request: Fill in: log P (acid) of CCc1nn2c(=O)cc(Cn3nc(NC(=O)c4cccnc4)cc3C)nc2s1 is ___
Response: 1.23

Request: Fill in: log P (acid) of Cn1nc(NC(=O)c2cccnc2)c(C#N)c1[S+](C)[O-] (centres unmarked) is ___
Response: 0.06

Request: Fill in: log P (acid) of Cc1cc(NC(=O)c2ccc[n+]([O-])c2)nn1Cc1ncccn1 is ___
Response: 0.55

Request: Fill in: log P (acid) of Cc1cc(NC(=O)c2cccnc2)nn1S(=O)(=O)N1CCC(C)CC1 is ___
Response: 2.51

Request: Fill in: log P (acid) of COC(=O)C(C)(C)NC(=O)Cn1nc(NC(=O)c2cncc(F)c2)cc1C is ___
Response: 1.33

Request: Fill in: log P (acid) of CNC(=O)n1nc(NC(=O)c2cccnc2)cc1C is ___
Response: 0.97

Request: Fill in: log P (acid) of Cc1cc(NC(=O)c2cccnc2)nn1Cc1ncccn1 is ___
Response: 0.77

Request: Fill in: log P (acid) of O=C(Nc1ccn(-c2ncccc2F)n1)c1cccnc1 is ___
Response: 1.15

Request: Fill in: log P (acid) of O=C(Nc1ccn(Cc2ccccc2)n1)c1cccnc1 is ___
Response: 1.52

Request: Fill in: log P (acid) of CC(C)=CCn1nc(NC(=O)c2cccnc2)cc1C is ___
Response: 1.75

Request: Fill in: log P (acid) of Cc1cnn(Cn2nc(NC(=O)c3cccnc3)cc2C)c1 is ___
Response: 1.24

Request: Fill in: log P (acid) of O=C(Nc1ccn(Cc2ccc(Cl)nc2)n1)c1cccnc1 is ___
Response: 1.22

Request: Fill in: log P (acid) of Cc1cc(NC(=O)c2cccnc2)nn1C(=O)NCc1ccccc1Cl is ___
Response: 2.29

Request: Fill in: log P (acid) of Cc1cc(NC(=O)c2cccnc2)nn1Cn1ccc(C(F)(F)F)n1 is ___
Response: 1.86

Request: Fill in: log P (acid) of Cc1cc(NC(=O)c2cccnc2)nn1CN1CCCNC1=O is ___
Response: 0.62

Request: Fill in: log P (acid) of Cc1cc(NC(=O)c2cccnc2)nn1Cc1ncccc1Cl is ___
Response: 1.42

Request: Fill in: log P (acid) of Cc1cc(NC(=O)c2cccnc2)nn1CSc1ncccn1 is ___
Response: 1.25

Request: Fill in: log P (acid) of O=C(Nc1cc(C2CC2)n(Cc2ccccc2)n1)c1cccnc1 is ___
Response: 2.1

Request: Fill in: log P (acid) of Cc1cc(NC(=O)c2cccnc2)nn1Cn1c(C)nn(C)c1=O is ___
Response: 0.74

Request: Fill in: log P (acid) of O=C(Nc1ccn(Cc2cccc(C(F)(F)F)c2)n1)c1cccnc1 is ___
Response: 2.07

Request: Fill in: log P (acid) of Cc1cc(NC(=O)c2cccnc2)nn1Cc1nccs1 is ___
Response: 1.05

Request: Fill in: log P (acid) of Cc1cc(NC(=O)c2cccnc2)nn1C(=O)NCC1CCCCO1 (centres unmarked) is ___
Response: 1.78

Request: Fill in: log P (acid) of CCCCNC(=O)n1nc(NC(=O)c2cccnc2)cc1C is ___
Response: 1.92

Request: Fill in: log P (acid) of CSCCn1nc(N(C)C(=O)c2cccnc2)cc1C is ___
Response: 1.17

Request: Fill in: log P (acid) of CCOCn1nc(NC(=O)c2cccnc2)cc1C is ___
Response: 1.1

Request: Fill in: log P (acid) of Cc1cc(NC(=O)c2cccnc2)nn1S(=O)(=O)c1cccnc1 is ___
Response: 1.45

Request: Fill in: log P (acid) of Cc1cc(NC(=O)c2cccnc2)nn1Cc1cscn1 is ___
Response: 0.95

Request: Fill in: log P (acid) of Cc1cc(NC(=O)c2cccnc2)nn1-c1cnccn1 is ___
Response: 1.27

###

- experiment notes: log P determination by LC-MS in the acidic range
- Assay type: physicochemical
- assay setup: Table 3; HPLC on reversed-phase column (C 18), 55° C., acidic range (pH 2.7 or pH 2.3)
Can you tell me log P (acid) for the items I'm about to list?
Give the figure by itself; no unit, no explanation.

Request: Fill in: log P (acid) of Cc1nn(-c2ccccc2Cl)nc1NC(=O)c1cccnc1 is ___
Response: 1.71

Request: Fill in: log P (acid) of O=C(Nc1cnn(-c2ncc(Cl)cc2Cl)n1)c1cccnc1 is ___
Response: 1.83

Request: Fill in: log P (acid) of O=C(Nc1cnn(-c2ccc(Cl)cc2)n1)c1cccnc1 is ___
Response: 2.43

###

- experiment notes: log P determination by LC-MS in the acidic range
- Assay type: physicochemical
- assay setup: pH 2.7, LC-MS in the acidic range; read-out: log P (acid)
quantity measured: chromatographic logP

Request: Fill in: chromatographic logP of O=C(Nc1cc(Br)n(Cc2ncccn2)n1)c1cccnc1 is ___
Response: 1.1

Request: Fill in: chromatographic logP of Cc1cn(Cc2ncccn2)nc1NC(=O)c1cccnc1 is ___
Response: 0.44

Request: Fill in: chromatographic logP of COC(=O)c1cc(NC(=O)c2cncc(F)c2)nn1C is ___
Response: 1.5

Request: Fill in: chromatographic logP of Cc1cc(NC(=O)c2cccnc2)n[nH]1 [Compound I-1-17, N-(5-Methyl-1H-pyrazol-3-yl)nicotinamide] is ___
Response: 0.3

Request: Fill in: chromatographic logP of Cc1cc(NC(=O)c2ccnnc2)nn1Cc1ccccc1 is ___
Response: 1.67

Request: Fill in: chromatographic logP of CCSCn1nc(NC(=O)c2cccnc2)cc1C is ___
Response: 1.49

Request: Fill in: chromatographic logP of Cn1nc(NC(=O)c2cncc(F)c2)cc1OC(F)F is ___
Response: 1.56

Request: Fill in: chromatographic logP of CCc1cc(NC(=O)c2cccnc2)nn1Cc1ccccc1 is ___
Response: 2.03

Request: Fill in: chromatographic logP of CCS(=O)(=O)Cn1nc(NC(=O)c2cccnc2)cc1C is ___
Response: 0.83
